Tested on: P388
Test: Cytotoxicity against mouse P388 cells after 3 days by MTT assay
Type: functional, cell-based
Settings: P388, 72 h
Note to self: use 1 only for IC50 readings below 2 µg/mL; a reading exactly at 2 µg/mL still gets 0.

# count of solved cases: 2
COMPOUND	EXPERIMENTAL_SYSTEM	ANSWER_LABEL
CC(C)=CCC[C@H](C)c1ccc(C)cc1O	P388	1
CC(=O)OC(CC(C)C)CC(C)c1ccc(C)cc1O (stereo unspecified)	P388	0

(Q) In plain terms, does COc1cc(C(=O)O)ccc1C(C)/C=C/C=C(C)C (stereo unspecified) come in under 2 µg/mL for IC50?
(A) 1

(Q) Next compound: CC(=O)OC(CC(C)C)CC(C)c1ccc(C=O)cc1O (stereo unspecified)
(A) 0

(Q) Likewise for Cc1ccc(C(C)CC(O)CC(C)C)c(O)c1 (stereo unspecified) ?
(A) 0

(Q) What do you have for CC(C)=C/C=C/C(C)c1ccc(C=O)c(O)c1O (stereo unspecified) ?
(A) 0
